Source: patent US8835392B2

- TARGET OF ASSAY: 20S proteasome β1 caspase-like activity (LLE-MCA) (Homo sapiens, UniProt P28072+Q99436)
- Construct: Proteasomes were isolated from red blood cells
- TEST PROTOCOL: Protease assay, caspase-like activity of isolated 20S proteasomes
- STUDY CONDITIONS: isolated 20S proteasome; LLE-MCA 50 μM; 15 min pre-incubation; read-out: IC50 β1 Caspase-like (E)
pIC50: −log10 of the molar value. Where a SMILES comes first, the peptide text is derived from it. [ ]: non-standard residue; d: D form. The star is where a group is joined. Leu(ol) = CC(C)C[C@H](N)CO; Cbz = O=C(OCc1ccccc1)*; Boc = CC(C)(C)OC(=O)*; OtBu = CC(C)(C)O*
Exercise: for every item that follows, state its recorded pIC50.

Sample CC(C)C[C@@H](C=O)NC(=O)[C@H](CC(=O)O)NC(=O)[C@@H](N)CC(C)C [Compound 14] (H-Leu-Asp-Leu-aldehyde) ; pIC50 observed: < 5.00

Given item CC(C)C[C@H](NC(=O)OCc1ccccc1)C(=O)N[C@@H](CC(C)C)C(=O)N[C@@H](CC(C)C)C(=O)C(=O)Nc1ccccc1 [Compound 28] , the value recorded as its pIC50 is < 5.00

Sample CC(C)C[C@@H](CO)NC(=O)[C@H](CC(=O)OC(C)(C)C)NC(=O)[C@H](CC(C)C)NC(=O)OCc1ccccc1 [Compound 8] (Cbz-Leu-Asp(OtBu)-[Leu(ol)]) ; pIC50 observed: < 5.00

Notebook: CC(C)C[C@H](NC(=O)OCc1ccccc1)C(=O)N[C@@H](CC(C)C)C(=O)N[C@@H](CC(C)C)C(=O)C(=O)NCc1cccnc1 [Compound 27] , pIC50 read as 5.10

Record CC(C)C[C@@H](COC(Cl)=CCl)NC(=O)[C@H](CC(C)C)NC(=O)[C@H](CC(C)C)NC(=O)OCc1ccccc1 [Compound 20] . Reported pIC50: < 5.00

Item: CC(C)C[C@@H](C=O)NC(=O)[C@H](CC(=O)OC(C)(C)C)NC(=O)[C@H](CC(C)C)NC(=O)OC(C)(C)C [Compound 13] (Boc-Leu-Asp(OtBu)-Leu-aldehyde) | pIC50: 7.01
